Overview of recorded Caspase-3 Ki(app) for various compounds
System Under Test: Caspase-3 (Homo sapiens)
Assay Comment: Kinetic compound screening, progress curve method, caspase-3
Type: biochemical
Test Context: Table IV

Recorded results for 2 compounds are shown here.
• Cc1cccc(C)c1C(=O)OCC(=O)[C@H](CC(=O)O)NC(=O)[C@@H](NC(=O)[C@@H](NC(=O)[C@H](Cc1ccc2ccccc2c1)NC(=O)Cc1ccc(O)c([N+](=O)[O-])c1)c1ccccc1)C(C)C [AB15, Np-26-34-V-D-DMBA] = 133,705 M-1s-1
• Cc1ccc(C[C@H](NC(=O)[C@H](CC(=O)O)NC(=O)Cc2ccc(O)c([N+](=O)[O-])c2)C(=O)N[C@H](C(=O)N[C@@H](CC(=O)O)C(=O)COC(=O)c2c(C)cccc2C)C(C)C)cc1 [AB12, Np-D-E-29-V-D-DMBA] = 5,652,900 M-1s-1

Please give the measured Caspase-3 Ki(app) for this compound: Cc1ccc(C[C@H](NC(=O)Cc2ccc(O)c([N+](=O)[O-])c2)C(=O)N[C@@H](CCC(=O)O)C(=O)N[C@H](C(=O)N[C@@H](CC(=O)O)C(=O)COC(=O)c2c(C)cccc2C)C(C)O)cc1 (stereo partly drawn) [AB20, Np-29-E-T-D-DMBA]
570,900 M-1s-1

Another compound to check: CCC(C)C(NC(=O)Cc1ccc(O)c([N+](=O)[O-])c1)C(=O)NC(Cc1ccccc1)C(=O)N1CCCC1C(=O)N[C@@H](CC(=O)O)C(=O)COC(=O)c1c(C)cccc1C (stereo partly drawn) [AB42, NP-I-F- P-D-AOMK]
892,045 M-1s-1

---

Overview of recorded Ki(app) Caspase-8 for various molecules
System Under Test: Caspase-8 (Homo sapiens)
Sequence (Q14790 217-479): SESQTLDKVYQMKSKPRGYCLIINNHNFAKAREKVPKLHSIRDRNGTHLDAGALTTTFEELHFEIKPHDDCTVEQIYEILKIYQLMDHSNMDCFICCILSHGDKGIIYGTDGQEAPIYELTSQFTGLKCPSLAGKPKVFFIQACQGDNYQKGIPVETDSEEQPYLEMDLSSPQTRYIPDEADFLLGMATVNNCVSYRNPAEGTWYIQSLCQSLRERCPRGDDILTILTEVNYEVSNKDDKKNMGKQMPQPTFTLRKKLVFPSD
Assay Comment: Kinetic compound screening, progress curve method, caspase-8
Format: biochemical
Test Context: Table III; Ki(app) = Kass or Kobs/I; 10 nM active caspase-8

Recorded results for 3 molecules are shown here.
• Cc1ccc(C[C@H](NC(=O)[C@H](CC(=O)O)NC(=O)Cc2ccc(O)c([N+](=O)[O-])c2)C(=O)N[C@H](C(=O)N[C@@H](CC(=O)O)C(=O)COC(=O)c2c(C)cccc2C)C(C)C)cc1 [AB12, Np-D-E-29-V-D-DMBA] = 271,626 M^−1s^−1
• Cc1cccc(C)c1C(=O)OCC(=O)[C@H](CC(=O)O)NC(=O)[C@H](C)NC(=O)[C@H](CC(C)C)NC(=O)C1CCCN1C(=O)Cc1ccc([N+](=O)[O-])c(O)c1 (stereo partly drawn) [AB38, Np-P-L- A-D-AOMK] = 19,676 M^−1s^−1
• Cc1cccc(C)c1C(=O)OCC(=O)[C@H](CC(=O)O)NC(=O)[C@@H](NC(=O)[C@H](Cc1ccccn1)NC(=O)[C@H](Cc1ccc2ccccc2c1)NC(=O)Cc1ccc(O)c([N+](=O)[O-])c1)C(C)C [AB16, Np-26-3-V-D-DMBA] = 121,650 M^−1s^−1

Now let's try a different one.
Please give the measured Ki(app) Caspase-8 for this molecule: Cc1cccc(C)c1C(=O)OCC(=O)[C@H](CC(=O)O)NC(=O)[C@H](Cc1cc[nH]c1)NC(=O)[C@H](CCC(=O)O)NC(=O)[C@H](CC(C)C)NC(=O)Cc1ccc(O)c([N+](=O)[O-])c1 [AB07, Np-L-E- H-D-DMBA]
506,912 M^−1s^−1

---

System Under Test: Caspase-3 (Homo sapiens, UniProt P42574)
Sequence (P42574 29-175 limits assumed): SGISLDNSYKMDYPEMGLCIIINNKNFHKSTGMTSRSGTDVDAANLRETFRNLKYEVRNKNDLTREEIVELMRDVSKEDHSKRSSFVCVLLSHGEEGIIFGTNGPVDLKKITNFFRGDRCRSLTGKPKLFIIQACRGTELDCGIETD
Sequence (P42574 176-277 limits assumed): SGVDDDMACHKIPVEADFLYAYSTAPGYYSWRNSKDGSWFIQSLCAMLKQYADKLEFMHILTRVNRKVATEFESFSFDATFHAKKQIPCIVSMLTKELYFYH
Assay Comment: Kinetic compound screening, progress curve method, caspase-3
Format: biochemical
Test Context: Table IV
Observable: Caspase-3 Ki(app)

Recorded results for 3 compounds are shown here.
- Cc1cccc(C)c1C(=O)OCC(=O)[C@H](CC(=O)O)NC(=O)C1(NC(=O)[C@H](CCC(=O)O)NC(=O)[C@H](CC(=O)O)NC(=O)Cc2ccc(O)c([N+](=O)[O-])c2)CC1: 341,429 M-1s-1
- Cc1cccc(C)c1C(=O)OCC(=O)[C@H](CC(=O)O)NC(=O)[C@@H](NC(=O)[C@H](CCC(=O)O)NC(=O)[C@H](Cc1ccc(I)cc1)NC(=O)Cc1ccc(O)c([N+](=O)[O-])c1)C(C)O (stereo partly shown): 216,040 M-1s-1
- Cc1cccc(C)c1C(=O)OCC(=O)[C@H](CC(=O)O)NC(=O)[C@@H](NC(=O)[C@H](Cc1ccccn1)NC(=O)[C@H](Cc1ccc2ccccc2c1)NC(=O)Cc1ccc(O)c([N+](=O)[O-])c1)C(C)C: 484,495 M-1s-1

Now let's try a different one.
Please give the measured Caspase-3 Ki(app) for this compound: CCC(C)C(NC(=O)Cc1ccc(O)c([N+](=O)[O-])c1)C(=O)N[C@@H](CC(C)C)C(=O)N1CSCC1C(=O)N[C@@H](CC(=O)O)C(=O)COC(=O)c1c(C)cccc1C (stereo partly shown)
1,582,350 M-1s-1

---

System Under Test: UniProtKB P55211
Sequence (P55211 whole entry): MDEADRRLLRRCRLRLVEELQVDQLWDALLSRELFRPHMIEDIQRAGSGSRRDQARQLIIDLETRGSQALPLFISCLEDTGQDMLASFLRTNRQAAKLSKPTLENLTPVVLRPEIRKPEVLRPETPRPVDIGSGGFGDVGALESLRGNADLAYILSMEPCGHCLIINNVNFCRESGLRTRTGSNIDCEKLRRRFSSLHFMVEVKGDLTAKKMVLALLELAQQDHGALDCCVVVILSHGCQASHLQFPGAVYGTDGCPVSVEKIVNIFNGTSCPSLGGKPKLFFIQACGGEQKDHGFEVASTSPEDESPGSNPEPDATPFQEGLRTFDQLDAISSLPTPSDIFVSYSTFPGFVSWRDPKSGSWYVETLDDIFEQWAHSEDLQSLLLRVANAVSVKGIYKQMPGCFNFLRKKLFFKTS
Assay Comment: Kinetic compound screening, progress curve method, caspase-9
Type: biochemical
Test Context: Table IV; NI = no inhibition at concentrations tested
Overview of recorded Caspase-9 Ki (app) for various compounds

- Cc1cccc(C)c1C(=O)OCC(=O)[C@H](CC(=O)O)NC(=O)[C@H](Cc1cc[nH]c1)NC(=O)[C@H](CCC(=O)O)NC(=O)[C@H](CC(C)C)NC(=O)Cc1ccc(O)c([N+](=O)[O-])c1: 41 M⁻¹ s⁻¹
- CCC(C)C(NC(=O)Cc1ccc(O)c([N+](=O)[O-])c1)C(=O)N[C@@H](CC(C)C)C(=O)N[C@@H](C)C(=O)N[C@@H](CC(=O)O)C(=O)COC(=O)c1c(C)cccc1C (stereo partly drawn): 48,867 M-1s-1

Now let's try a different one.
Please give the measured Caspase-9 Ki (app) for this compound: CC[C@H](NC(=O)[C@@H](CCC(=O)O)NC(=O)c1ccccc1N)C(=O)N[C@@H](CC(=O)O)C(=O)COC(=O)c1c(C)cccc1C
300,767 M-1s-1

---

System Under Test: Caspase-7 (Homo sapiens)
Sequence (P55210 1-303): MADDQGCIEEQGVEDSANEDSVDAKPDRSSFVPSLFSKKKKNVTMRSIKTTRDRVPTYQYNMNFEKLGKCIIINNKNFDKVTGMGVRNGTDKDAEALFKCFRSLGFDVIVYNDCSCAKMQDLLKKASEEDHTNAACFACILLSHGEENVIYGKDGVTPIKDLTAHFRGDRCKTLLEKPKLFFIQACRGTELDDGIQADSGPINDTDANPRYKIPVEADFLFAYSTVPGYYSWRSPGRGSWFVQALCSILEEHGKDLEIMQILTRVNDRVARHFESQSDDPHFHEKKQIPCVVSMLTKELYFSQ
Assay Comment: Kinetic compound screening, progress curve method, caspase-7
Format: biochemical
Test Context: Table III; Ki(app) = Kass or Kobs/I; 5 nM active caspase-7
Residues, ends and D or L forms follow the SMILES beside them. *: point of attachment. Cbz = O=C(OCc1ccccc1)*; CH2F = FC*
Observable: Ki(app) Caspase-7

Recorded results for 4 molecules are shown here.
- Cc1cccc(C)c1C(=O)OCC(=O)[C@H](CC(=O)O)NC(=O)[C@@H](NC(=O)[C@H](Cc1ccncc1)NC(=O)[C@H](CC(=O)O)NC(=O)Cc1ccc(O)c([N+](=O)[O-])c1)C(C)C [AB06, Np-D-3-V-D-DMBA]: 968,070 M^−1s^−1
- Cc1cccc(C)c1C(=O)OCC(=O)[C@H](CC(=O)O)NC(=O)[C@@H](NC(=O)[C@H](CCC(=O)O)NC(=O)[C@H](CC(=O)O)NC(=O)Cc1ccc(O)c([N+](=O)[O-])c1)C(C)C [AB09, Np-D-E- V-D-DMBA]: 1,529,040 M^−1s^−1
- Cc1ccc(C[C@H](NC(=O)Cc2ccc(O)c([N+](=O)[O-])c2)C(=O)N[C@@H](CCC(=O)O)C(=O)N[C@H](C(=O)N[C@@H](CC(=O)O)C(=O)COC(=O)c2c(C)cccc2C)C(C)O)cc1 (stereo partly drawn) [AB20, Np-29-E-T-D-DMBA]: 181,332 M^−1s^−1
- COC(=O)C[C@H](NC(=O)[C@H](C)NC(=O)[C@@H](NC(=O)OCc1ccccc1)C(C)C)C(=O)CF [ZVAD-fmk, reference compound] (Cbz-Val-Ala-Asp(OMe)-CH2F): <5,000 M^−1s^−1

Now let's try a different one.
Please give the measured Ki(app) Caspase-7 for this molecule: Cc1cccc(C)c1C(=O)OCC(=O)[C@H](CC(=O)O)NC(=O)[C@@H](NC(=O)[C@@H](NC(=O)[C@H](CC(=O)O)NC(=O)Cc1ccc(O)c([N+](=O)[O-])c1)c1ccccc1)C(C)C [AB13, Np-D-E-34-V-D-DMBA]
279,519 M^−1s^−1
